- Tested on: Danio rerio Tg(wt1b:EGFP) embryo, pronephros
- Experimental protocol: pronephric angle neck segment to proximal convoluted tubule (mean of left and right), fold change vs DMSO control; higher = larger pronephric angle
- Measurement parameters: 25 µM; exposure: 24-48 hpf
Where a name gives a salt, the structure may show the parent alone.
Reported metric: pronephric angle neck segment
Provide a numeric answer; units are not to be included.

Problem: Fill in the blank: the reported pronephric angle neck segment of O=C1[C@H](CC[C@H](O)c2ccc(F)cc2)[C@@H](c2ccc(O)cc2)N1c1ccc(F)cc1 is ____.
Result: 0.992

Problem: Again, but for CCN(CC)CC#CCOC(=O)C(O)(c1ccccc1)C1CCCCC1 (stereo not drawn) [Oxybutynin chloride]
Result: 0.985

Problem: Again, but for COc1c(N2CCNC(C)C2)c(F)cc2c(=O)c(C(=O)O)cn(C3CC3)c12 (stereo not drawn)
Result: 1

Problem: Again, but for CC(C)C[C@H](NC(=O)[C@@H](O)[C@H](N)Cc1ccccc1)C(=O)O
Result: 1.01

Problem: Again, but for CC1Cc2ccccc2N1NC(=O)c1ccc(Cl)c(S(N)(=O)=O)c1 (stereo not drawn) [Indapamide]
Result: 0.988

Problem: Again, but for O=C(NCC1CCCCN1)c1cc(OCC(F)(F)F)ccc1OCC(F)(F)F (stereo not drawn) [Flecainide acetate]
Result: 0.961

Problem: Again, but for CC(C)NCC(O)c1ccc(O)c(O)c1 (single isomer, unassigned; (-)) [(-)-Isoproterenol hydrochloride]
Result: 1.02

Problem: Again, but for CCOC(=O)C1=C(C)NC(C)=C(C(=O)OC)C1c1cccc([N+](=O)[O-])c1 (stereo not drawn)
Result: 1.29

Problem: Again, but for CC(C)OC(=O)C(C)(C)Oc1ccc(C(=O)c2ccc(Cl)cc2)cc1 [Fenofibrate]
Result: 1.8

Problem: Again, but for Cc1cc(NC(=O)C2=C(O)c3ccccc3S(=O)(=O)N2C)no1
Result: 1.02

Problem: Again, but for CC(C(=O)O)c1ccc(N2Cc3ccccc3C2=O)cc1 (stereo not drawn)
Result: 1.3

Problem: Again, but for CCN[C@H]1C[C@H](C)S(=O)(=O)c2sc(S(N)(=O)=O)cc21 [Dorzolamide hydrochloride]
Result: 1.02

Problem: Again, but for COc1cc(-c2ccc(=O)[nH]n2)ccc1OC(F)F
Result: 0.994

Problem: Again, but for OC[C@H]1O[C@@H](Oc2ccc(O)cc2)[C@H](O)[C@@H](O)[C@@H]1O
Result: 0.933

Problem: Again, but for CC(=O)N(CC(O)CN(C(C)=O)c1c(I)c(C(=O)NCC(O)CO)c(I)c(C(=O)NCC(O)CO)c1I)c1c(I)c(C(=O)NCC(O)CO)c(I)c(C(=O)NCC(O)CO)c1I (stereo not drawn)
Result: 1

Problem: Again, but for O=C1[C@H]2CCCC[C@H]2C(=O)N1CCCCN1CCN(c2nsc3ccccc23)CC1
Result: 1.05

Problem: Again, but for Cc1c(N(C)C)c(=O)n(-c2ccccc2)n1C
Result: 1.01

Problem: Again, but for Cc1nccn1CC1CCc2c(c3ccccc3n2C)C1=O (stereo not drawn) [Ondansetron Hydrochloride]
Result: 0.961

Problem: Again, but for CN[C@@H]1[C@H](O[C@H]2[C@H](O[C@H]3[C@H](O)[C@@H](O)[C@H](NC(=N)N)[C@@H](O)[C@@H]3NC(=N)N)O[C@@H](C)[C@]2(O)CO)O[C@@H](CO)[C@H](O)[C@H]1O [Dihydrostreptomycin sulfate]
Result: 0.975

Problem: Again, but for CC[N+](C)(CC)CCOC(=O)C1c2ccccc2Oc2ccccc21 [Methantheline bromide]
Result: 1.05

Problem: Again, but for CCCCc1nc(Cl)c(CO)n1Cc1ccc(-c2ccccc2-c2nnn[nH]2)cc1
Result: 1.04

Problem: Again, but for COc1cc([C@@H]2c3cc4c(cc3[C@@H](O[C@@H]3O[C@@H]5CO[C@@H](C)O[C@H]5[C@H](O)[C@H]3O)[C@H]3COC(=O)[C@H]23)OCO4)cc(OC)c1O [Etoposide]
Result: 0.982

Problem: Again, but for Cc1c(-c2ccccc2)oc2c(C(=O)OCCN3CCCCC3)cccc2c1=O [Flavoxate hydrochloride]
Result: 1.06

Problem: Again, but for Nc1ccc(S(=O)(=O)c2ccc(N)cc2)cc1
Result: 1.14

Problem: Again, but for NCCCC[C@H](N[C@@H](CCc1ccccc1)C(=O)O)C(=O)N1CCC[C@H]1C(=O)O
Result: 1.02

Problem: Again, but for Cc1ccccc1C(OCCN(C)C)c1ccccc1 (stereo not drawn) [Orphenadrine hydrochloride]
Result: 1

Problem: Again, but for NC(=O)c1cnccn1 [Pyrazinamide]
Result: 0.936

Problem: Again, but for Nc1nc(=O)c2nc(CNc3ccc(C(=O)N[C@@H](CCC(=O)O)C(=O)O)cc3)cnc2[nH]1
Result: 1.04

Problem: Again, but for CCN(CC)C(=O)Nc1ccc(OCC(O)CNC(C)(C)C)c(C(C)=O)c1 (stereo not drawn) [Celiprolol hydrochloride]
Result: 0.964

Problem: Again, but for O=C(O)COC(=O)Cc1ccccc1Nc1c(Cl)cccc1Cl
Result: 1.24

Problem: Again, but for Cn1c(=O)c2c(ncn2CC2OCCO2)n(C)c1=O
Result: 1.03

Problem: Again, but for CCN(CC)CCNC(=O)c1ccc(N)cc1 [Procainamide hydrochloride]
Result: 1.1

Problem: Again, but for CC[C@H](c1ccc(O)cc1)[C@@H](CC)c1ccc(O)cc1
Result: 1.22

###

Provide the recorded glomerular width for the entries that follow.
- System: Danio rerio Tg(wt1b:EGFP) embryo, pronephros
- Experimental protocol: glomerular width (mean of left and right), fold change vs DMSO control; higher = wider glomerulus
- Measurement parameters: 25 µM; exposure: 24-48 hpf
Structures can show the parent of a compound that is named as a salt.

Problem: Query the reported glomerular width for Danio rerio Tg(wt1b:EGFP) embryo, pronephros; item: CC(C)Cc1ccc([C@H](C)C(=O)O)cc1 [S-(+)-ibuprofen]
Result: 0.59

Problem: Again, but for COc1ccc(-c2ccc(=N)n(CCCC(=O)O)n2)cc1 [Gabazine bromide]
Result: 0.983

Problem: Again, but for COC(=O)C1=C(C)NC(C)=C(C(=O)OC)C1c1ccccc1[N+](=O)[O-]
Result: 1.05

Problem: Again, but for CC(=O)N(CC(C)C(=O)O)c1c(I)cc(I)c(N)c1I (centres undefined)
Result: 0.974

Problem: Again, but for Clc1ccc(Nc2nnc(Cc3ccncc3)c3ccccc23)cc1
Result: 0.886

Problem: Again, but for CCCCc1nc(Cl)c(CO)n1Cc1ccc(-c2ccccc2-c2nnn[nH]2)cc1
Result: 0.944

Problem: Again, but for C#Cc1cccc(Nc2ncnc3cc(OCCOC)c(OCCOC)cc23)c1
Result: 1.05

Problem: Again, but for CCN(CC)CCNC(=O)c1cc(S(C)(=O)=O)ccc1OC [Tiapride hydrochloride]
Result: 0.902

Problem: Again, but for CCCCN(CCCC)CCC(O)c1cc2c(Cl)cc(Cl)cc2c2cc(C(F)(F)F)ccc12 (centres undefined) [Halofantrine hydrochloride]
Result: 0.655

###

- Test system: Danio rerio Tg(wt1b:EGFP) embryo, pronephros
- Experimental protocol: glomerular separation, fold change vs DMSO control; higher = glomeruli further apart (abnormal)
- Measurement parameters: 25 µM; exposure: 24-48 hpf
Structures can show the parent of a compound that is named as a salt.
Reported metric: glomerular separation
Provide a numeric answer; units are not to be included.

Problem: Fill in the blank: the reported glomerular separation of Clc1ccc(CSC(Cn2ccnc2)c2ccc(Cl)cc2Cl)cc1 (stereo not drawn) [Sulconazole nitrate] is ____.
Result: 2.88

Problem: Again, but for CC(=O)[C@@]12O[C@](C)(c3ccccc3)O[C@@H]1C[C@H]1[C@@H]3CCC4=CC(=O)CC[C@]4(C)[C@H]3CC[C@@]12C [Algestone acetophenide]
Result: 1.76

Problem: Again, but for Cc1cc(C(C)(C)C)c(O)c(C)c1CC1=NCCN1 [Oxymetazoline hydrochloride]
Result: 1.08

Problem: Again, but for CCCCNc1c(C(=O)OCC)c(C)nc2c1cnn2CC [Tracazolate hydrochloride]
Result: 1.18

Problem: Again, but for O=C(OCCOCCO)c1ccccc1Nc1cccc(C(F)(F)F)c1 [Etofenamate]
Result: 3.04

Problem: Again, but for C1CCC(C(CC2CCCCN2)C2CCCCC2)CC1 (stereo not drawn) [Perhexiline maleate]
Result: 1.12

Problem: Again, but for Nc1ccc(S(=O)(=O)c2ccc(N)cc2)cc1 [Dapsone]
Result: 1.08

Problem: Again, but for CCCCCNC(=N)N/N=C/c1c[nH]c2ccc(OC)cc12 [Tegaserod maleate]
Result: 1.26

Problem: Again, but for C=CC1=C(C(=O)O)N2C(=O)[C@@H](NC(=O)/C(=N\OCC(=O)O)c3csc(N)n3)[C@H]2SC1 [Cefixime]
Result: 1.32

Problem: Again, but for COC(=O)[C@H]1[C@H]2C[C@@H]3c4[nH]c5cc(OC)ccc5c4CCN3C[C@H]2C[C@@H](OC(=O)c2cc(OC)c(OC)c(OC)c2)[C@@H]1OC [Reserpine]
Result: 0.705

Problem: Again, but for CC(Cc1cccc(C(F)(F)F)c1)NCCOC(=O)c1ccccc1 (stereo not drawn) [Benfluorex]
Result: 0.843

Problem: Again, but for NS(=O)(=O)c1cc2c(cc1Cl)NCNS2(=O)=O [Hydrochlorothiazide]
Result: 1.03

Problem: Again, but for CCOC(=O)c1ccc(N)cc1 [Benzocaine]
Result: 1.45
